- measuredTarget: bovine retina PDE6 (Bos taurus, UniProt P11541+P23439)
- Construct: bovine retina PDE6
- Sequence (P11541 2-856 limits assumed): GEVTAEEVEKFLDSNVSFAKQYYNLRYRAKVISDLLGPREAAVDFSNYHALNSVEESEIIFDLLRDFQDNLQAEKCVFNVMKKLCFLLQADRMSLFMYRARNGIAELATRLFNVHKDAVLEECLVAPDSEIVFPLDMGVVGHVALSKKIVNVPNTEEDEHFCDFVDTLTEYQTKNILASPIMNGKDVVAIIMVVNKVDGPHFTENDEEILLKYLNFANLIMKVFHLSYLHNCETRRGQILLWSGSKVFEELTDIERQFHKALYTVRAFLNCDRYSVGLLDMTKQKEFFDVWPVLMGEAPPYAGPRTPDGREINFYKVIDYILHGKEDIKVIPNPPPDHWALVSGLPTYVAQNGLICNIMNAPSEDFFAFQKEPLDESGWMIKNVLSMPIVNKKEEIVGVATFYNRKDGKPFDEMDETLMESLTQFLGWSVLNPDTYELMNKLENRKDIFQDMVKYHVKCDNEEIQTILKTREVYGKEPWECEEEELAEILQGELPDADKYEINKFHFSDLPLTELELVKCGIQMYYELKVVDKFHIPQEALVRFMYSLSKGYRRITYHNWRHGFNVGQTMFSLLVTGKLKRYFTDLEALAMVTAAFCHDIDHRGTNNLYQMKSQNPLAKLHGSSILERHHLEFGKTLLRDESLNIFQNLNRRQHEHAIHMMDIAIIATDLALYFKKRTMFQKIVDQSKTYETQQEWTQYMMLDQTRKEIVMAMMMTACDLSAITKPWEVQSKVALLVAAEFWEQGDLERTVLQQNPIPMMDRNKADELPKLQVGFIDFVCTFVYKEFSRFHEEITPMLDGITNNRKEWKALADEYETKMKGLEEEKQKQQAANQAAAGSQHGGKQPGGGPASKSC
- Sequence (P23439 2-850 limits assumed): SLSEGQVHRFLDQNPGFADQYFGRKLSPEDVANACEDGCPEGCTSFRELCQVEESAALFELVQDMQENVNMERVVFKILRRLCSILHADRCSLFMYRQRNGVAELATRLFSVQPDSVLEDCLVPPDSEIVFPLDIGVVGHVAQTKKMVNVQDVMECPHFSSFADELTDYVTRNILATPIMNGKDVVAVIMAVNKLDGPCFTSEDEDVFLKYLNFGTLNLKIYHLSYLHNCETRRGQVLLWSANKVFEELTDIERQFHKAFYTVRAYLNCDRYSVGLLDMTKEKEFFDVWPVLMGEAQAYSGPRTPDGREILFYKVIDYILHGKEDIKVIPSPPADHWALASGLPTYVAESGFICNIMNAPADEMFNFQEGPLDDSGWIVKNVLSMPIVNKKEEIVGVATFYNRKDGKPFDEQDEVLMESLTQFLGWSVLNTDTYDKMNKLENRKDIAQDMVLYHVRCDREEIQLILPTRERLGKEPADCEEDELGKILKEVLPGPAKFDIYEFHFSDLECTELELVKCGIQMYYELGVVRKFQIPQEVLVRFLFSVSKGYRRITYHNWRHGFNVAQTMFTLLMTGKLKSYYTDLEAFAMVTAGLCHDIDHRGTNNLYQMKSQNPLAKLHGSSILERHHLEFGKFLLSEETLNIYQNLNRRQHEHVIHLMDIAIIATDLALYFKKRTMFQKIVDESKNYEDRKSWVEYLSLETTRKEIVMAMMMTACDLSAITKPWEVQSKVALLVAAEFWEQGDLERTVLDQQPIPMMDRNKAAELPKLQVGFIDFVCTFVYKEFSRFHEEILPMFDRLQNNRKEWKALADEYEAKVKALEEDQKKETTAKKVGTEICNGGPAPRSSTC
- assayInfo: PDE selectivity, bovine retina PDE6

- smilesRecord: "CN1C(=O)c2c(nn(Cc3ccc(-c4cccc(F)n4)cc3)c2Nc2ccccc2)N2C1=N[C@@H]1CCC[C@@H]12"
  IC50 (nM): 324
